Target: SpHof1-3
Experiment: SPOT peptide array binding signal intensity (averaged, normalized) (arbitrary units (background-subtracted, floor 0; scale differs between SH3 domains)); higher = stronger binding of the SH3 domain to the peptide
Classify on SPOT peptide array binding signal intensity using LOW = under 30, MEDIUM = from 30 up to 1000, HIGH = 1000 and over

// known answers, use as guide
ATNVPVAPPPPPASL | LOW
APKHAPPPVPNETDN | LOW
AHFQPQRTAPKPPIS | MEDIUM
RSKRLFPVRPMATAH | MEDIUM
RTRRRPPPPPIPSTQ | MEDIUM

Req: Category lookup for the binder MPAPPPPPPPPPGAF
Resp: LOW

Req: Thanks! And AATTSTPPLPRRRAT ?
Resp: MEDIUM

Req: Thanks! And ALRRRLPVTRSKINW ?
Resp: MEDIUM
